Provenance of the data: patent US20240218057A1

assay.target: T1, SARS-CoV-2 receptor-binding domain (RBD), S protein residues 319-539 (SARS-CoV-2, UniProt P0DTC2 319-539)
T1 construct: also called WT RBD; SARS-COV-2 RBD
protocol.summary: ELISA on coated RBD
Catalogue of binders with associated EC50
Just the number in ng/mL, nothing appended.

binder="C843 (antibody, V domains shown) VH: QVQLVESGGGVVQPGRSLRLSCAASGFTFSRYAMHWVRQAPGKGLEWVAVISYDGSNKYYATSLKGRCTISRDNSKNTLYLQMNSLRAEDTAVYFCAKQIGEYCSGGNCYQGSLDYWGQGTLVTVSS VL: DIQMTQSPSSLSASVGDRVTITCQASQDISNYLNWYQQKPGKAPKLLIYDASDLETGVPSTFSGSGSGTDFTLTISSLQPEDFATYYCQQYDIVPFTFGPGTKVDIK" units=ng/mL measured_value=1.34

Please examine the following record next.
# EC50 lookup, item C980 (antibody, V domains shown) VH: QVQLVQSGAEVKKPGSSVKVSCEASGGTFSSDSINWVRQAPGQGLEWMGRIIPIFGATNYAQKFQGRVTITADKSTDTVYMEVSSLTSEDTAVYYCARGGIAVGGWWFDPWGQGTLVTVSS VL: EIVMTQSPATLSVSPGERATLSCRASESVSSKLAWYQQKPGQAPRLLIYGASTRATGISARFSGSGSGTDFTLTISSLESEDFAVYYCQQYNHWPPNTFGQGTKLEIK
4.07
